Molecular target: TYK2 (Homo sapiens, UniProt P29597)
Construct: Degradation of TYK2 in cells was quantitatively measured using Meso Scale Discovery (MSD) technology; endogenous in cells; host or cells: OCI-LY10
Sequence (P29597 whole entry): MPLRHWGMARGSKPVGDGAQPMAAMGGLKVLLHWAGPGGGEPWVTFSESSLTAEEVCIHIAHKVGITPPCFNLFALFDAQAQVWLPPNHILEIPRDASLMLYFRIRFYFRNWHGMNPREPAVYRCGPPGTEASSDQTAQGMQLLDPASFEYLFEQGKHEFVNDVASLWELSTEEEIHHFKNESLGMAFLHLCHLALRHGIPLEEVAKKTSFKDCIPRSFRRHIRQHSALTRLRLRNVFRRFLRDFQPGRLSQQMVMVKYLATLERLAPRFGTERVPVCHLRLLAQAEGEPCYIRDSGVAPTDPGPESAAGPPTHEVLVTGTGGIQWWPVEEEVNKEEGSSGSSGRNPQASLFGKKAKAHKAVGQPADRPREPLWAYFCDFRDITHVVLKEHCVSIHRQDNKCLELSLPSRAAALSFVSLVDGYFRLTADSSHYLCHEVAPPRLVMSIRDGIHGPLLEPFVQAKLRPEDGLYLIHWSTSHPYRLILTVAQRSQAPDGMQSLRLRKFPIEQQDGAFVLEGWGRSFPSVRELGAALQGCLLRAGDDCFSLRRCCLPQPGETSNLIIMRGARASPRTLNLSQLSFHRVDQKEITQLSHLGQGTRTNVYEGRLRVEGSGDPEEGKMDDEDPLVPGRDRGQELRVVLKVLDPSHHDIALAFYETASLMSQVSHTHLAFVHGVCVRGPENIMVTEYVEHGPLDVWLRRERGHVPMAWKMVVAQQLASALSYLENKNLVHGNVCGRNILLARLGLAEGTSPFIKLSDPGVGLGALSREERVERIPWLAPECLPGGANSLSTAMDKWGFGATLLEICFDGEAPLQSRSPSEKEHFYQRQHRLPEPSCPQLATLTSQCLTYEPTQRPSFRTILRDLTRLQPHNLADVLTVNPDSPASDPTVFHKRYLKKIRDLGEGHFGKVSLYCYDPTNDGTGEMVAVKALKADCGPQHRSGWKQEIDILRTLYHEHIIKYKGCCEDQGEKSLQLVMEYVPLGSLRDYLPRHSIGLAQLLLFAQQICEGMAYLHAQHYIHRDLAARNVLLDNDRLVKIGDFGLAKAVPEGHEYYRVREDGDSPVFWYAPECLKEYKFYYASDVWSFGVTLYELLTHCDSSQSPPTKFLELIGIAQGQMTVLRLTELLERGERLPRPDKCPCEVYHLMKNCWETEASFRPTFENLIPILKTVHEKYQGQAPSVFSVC
Assay: TYK2 MSD degradation in OCI-LY10 cells
Type: cell-based
Conditions: TYK2 degradation in OCI-LY10 cells, 4 to 24 hours incubation
metric name: TYK2 MSD OCI-LY10 Dmax %

molecule	experimental system	TYK2 MSD OCI-LY10 Dmax %
CNc1cc(N2CCc3c(CCN4CCC5(CC4)CCN(C(=O)c4ccc(Cl)c(N6CCC(=O)NC6=O)c4)CC5)cccc32)nn2c(C(=O)N[C@@H]3C[C@@H]3F)cnc12 [I-895]	TYK2 (Homo sapiens, UniProt P29597)	D (D (<50%))
CNc1cc(N2CCc3c(-c4cc(CN5CCN(C(=O)c6ccc(Cl)c(N7CCC(=O)NC7=O)c6)CC5)ccn4)cccc32)nn2c(C(=O)N[C@@H]3C[C@@H]3F)cnc12 [I-78]	TYK2 (Homo sapiens, UniProt P29597)	D (D (<50%))
CNc1cc(N2CCc3c(-c4ncc(CN5CC6(CCN(C(=O)c7cc(C)c(Cl)c(N8CCC(=O)NC8=O)c7)CC6(F)F)C5)cc4F)cccc32)nn2c(C(=O)NC3CCCC3)cnc12 [I-990]	TYK2 (Homo sapiens, UniProt P29597)	B (B (90 to >75%))
CNc1cc(N2CCc3c(CN4CCC(N5CC(N6CCN(c7ccc8c(c7)n(C)c(=O)n8C7CCC(=O)NC7=O)CC6)C5)C(F)(F)C4)cccc32)nn2c(C(=O)N[C@@H]3C[C@@H]3F)cnc12 (some centres unmarked) [I-72]	TYK2 (Homo sapiens, UniProt P29597)	B (B (90 to >75%))
CNc1cc(N2CCc3c(CN4CCC(N5CCC6(CCN(C(=O)c7cc(N8CCC(=O)NC8=O)c(C)c(Cl)c7F)CC6)CC5)C(F)(F)C4)cccc32)nn2c(C(=O)N[C@@H]3CC[C@H]3OC)cnc12 (some centres unmarked) [I-1125]	TYK2 (Homo sapiens, UniProt P29597)	A (A (>90%))

Reported TYK2 MSD OCI-LY10 Dmax % (TYK2 (Homo sapiens, UniProt P29597)) for entry CNc1cc(N2CCc3c(CN4CCC(N5CCC6(CCN(C(=O)c7cc(F)c(C)c(N8CCC(=O)NC8=O)c7)CC6)CC5)C(F)(F)C4)cccc32)nn2c(C(=O)N[C@@H]3C[C@@H]3F)cnc12 (some centres unmarked) [I-843] is A (A (>90%))

TYK2 (Homo sapiens, UniProt P29597) TYK2 MSD OCI-LY10 Dmax % of CNc1cc(N2CCc3c(CN4CCC(N5CC6(CCN(C(=O)c7ccc(Cl)c(N8CCC(=O)NC8=O)c7)CC6)C5)C(F)(F)C4)cccc32)nn2c(C(=O)N[C@@H]3C[C@@H]3F)cnc12 (some centres unmarked) [I-840] is A (A (>90%))

Reported TYK2 MSD OCI-LY10 Dmax % (TYK2 (Homo sapiens, UniProt P29597)) for entry CNc1cc(N2CCc3c(C#CCN4CCC5(CN(C(=O)c6ccc(Cl)c(N7CCC(=O)NC7=O)c6)C5)C(F)(F)C4)cccc32)nn2c(C(=O)N[C@@H]3C[C@@H]3F)cnc12 [I-370] is D (D (<50%))

Query CNc1cc(N2CCc3c(-c4ncc(CN5CC6(CCN(C(=O)c7cc(N8CCC(=O)NC8=O)c(C)cn7)CC6(F)F)C5)cc4F)cc(F)cc32)nn2c(C(=O)N[C@@H]3C[C@@H]3F)cnc12 [I-971] on TYK2 (Homo sapiens, UniProt P29597); TYK2 MSD OCI-LY10 Dmax % returned: B (B (90 to >75%))

TYK2 MSD OCI-LY10 Dmax % value, target or system TYK2 (Homo sapiens, UniProt P29597), for CNc1cc(N2CCc3c(N4CC(CN5CCC(N6CCN(c7ccc8c(c7)n(C)c(=O)n8C7CCC(=O)NC7=O)CC6)C(F)(F)C5)C4)cccc32)nn2c(C(=O)NC3CC3)cnc12 (centres unmarked) [I-12] : C (C (75 to 50%))

// returns TYK2 MSD OCI-LY10 Dmax % for CNc1cc(N2CCc3c(-c4ncc(CN5CC6(CCN(C(=O)c7cc(N8CCC(=O)NC8=O)c(C)cc7F)CC6(F)F)C5)cc4F)cccc32)nn2c(C(=O)NC3CCC3OC)cnc12 (centres unmarked) [I-1007] with TYK2 (Homo sapiens, UniProt P29597); value = A (A (>90%))
